List of Sensitivity for detecting double-stranded DNA in agarose gels values.
test system: double-stranded bacteriophage λ cl857 DNA that is digested with HindIII restriction endonuclease; assay: Detecting nucleic acids in gels; format: binding; settings: POLAROID 667 B&W film; FOTODYNE 254 nm epi.; 1 micromolar dye

The cases that follow already have their Sensitivity for detecting double-stranded DNA in agarose gels on record.
INSERT INTO assay_data (record_smiles, assay_result) VALUES
  ('CCN(CC)Cc1ccc(C2=C/C(=C\c3nc4c(ccc[n+]4C)o3)c3cc(OC)ccc3N2C)cc1.[I-]', '60 pg'),
  ('CCN1C(c2ccccc2)=C/C(=C\c2nc3c(ccc[n+]3C)o2)c2cc3c(cc21)OCO3.[I-]', '60 pg'),
  ('COc1ccc2c(c1)N(C)C(c1ccccc1)=C/C2=C\c1nc2c(ccc[n+]2C)o1.[I-]', '60 pg'),
  ('CC[N+](C)(CC)Cc1ccc(C2=C/C(=C\c3nc4c(ccc[n+]4C)o3)c3ccccc3N2C)cc1', '30 pg'),
  ('CN1C(c2ccccc2)=C/C(=C\c2nc3c(ccc[n+]3C)o2)c2ccccc21.[I-]', '30 pg');

Exercise: Provide only the value of recorded Sensitivity for detecting double-stranded DNA in agarose gels for `CCCCC1=C/C(=C\c2nc3c(ccc[n+]3C)o2)c2ccccc2N1c1ccccc1.[I-]`
Solution: 60 pg

Exercise: Hello, please tell me recorded Sensitivity for detecting double-stranded DNA in agarose gels for this one: `CCN(CC)Cc1ccc(C2=C/C(=C\c3nc4c(ccc[n+]4C)o3)c3ccccc3N2C)cc1.[I-]`
Solution: 30 pg

Exercise: Could you please provide reported Sensitivity for detecting double-stranded DNA in agarose gels for `CC[N+](C)(CC)Cc1ccc(C2=C/C(=C\c3nc4c(ccc[n+]4C)o3)c3cc(OC)ccc3N2C)cc1` ? Thanks!
Solution: 120 pg

====

system: double-stranded DNA; experiment: Detecting double-stranded DNA in solution (fluorescence microplate reader); format: binding; conditions: Excitation 540 nm/Emission 570 nm
Value Type: Sensitivity Limit, High dye concentration (0.1 OD) (ng/mL)
Just the number in ng/mL, nothing appended.

Guide cases for Sensitivity Limit, High dye concentration (0.1 OD), answers given:
INSERT INTO results (compound, measurement_units, assay_result) VALUES
  ('CC[N+](C)(CC)Cc1ccc(C2=C/C(=C\c3nc4c(ccc[n+]4C)o3)c3ccccc3N2C)cc1', 'ng/mL', 10),
  ('C[n+]1cccc2oc(/C=C3\C=C(Cl)N(c4ccccc4)c4ccccc43)nc21', 'ng/mL', 100),
  ('CN1C=C/C(=C\c2nc3c(cc(Cl)c[n+]3C)s2)c2ccccc21.[I-] [Compound 35]', 'ng/mL', 10),
  ('CN1C=C/C(=C\c2sc3ncccc3[n+]2C)c2ccccc21.[I-]', 'ng/mL', 100);

Okay, next one:
Exercise: Provide Sensitivity Limit, High dye concentration (0.1 OD) value for the following compound: `CCN(CC)Cc1ccc(C2=C/C(=C\c3nc4c(ccc[n+]4C)o3)c3ccccc3N2C)cc1.[I-]`
Solution: 10
